- target: Bcr-Abl^T315I (Homo sapiens, UniProt P00519+P11274, T315I)
- measurementNotes: Western blot degradation study in Ba/F3 cells expressed Bcr-Abl^T315I
- Type: cell-based
- measurementContext: 300 nmol/L, 24 h treatment, Western blot
measuredMetric: DR against Ba/F3 Bcr-Abl^T315I (%) 300 nmol/L

(P) Cc1ccc(C(=O)Nc2ccc(CN3CCN(CCOCCOCCC(=O)Nc4cccc5c4CN(C4CCC(=O)NC4=O)C5=O)CC3)c(C(F)(F)F)c2)cc1C#Cc1cnc2[nH]ncc2c1 (stereo not drawn)
(Q) Cc1ccc(C(=O)Nc2ccc(CN3CCN(C)CC3)c(C(F)(F)F)c2)cc1C#Cc1cnc2[nH]ncc2c1 [GZD824, reference compound]
(R) Cc1ccc(C(=O)Nc2ccc(CN3CCN(CCCCCCCCC(=O)Nc4cccc5c4C(=O)N(C4CCC(=O)NC4=O)C5=O)CC3)c(C(F)(F)F)c2)cc1C#Cc1cnc2[nH]ncc2c1 (stereo not drawn)
Qu. Order by DR against Ba/F3 Bcr-Abl^T315I (%) 300 nmol/L, smallest first, the items presented above. Answer by listing the labels in the order asked for.
Ans. P, Q, R
